# maps each entry to its Kd
- SYSTEM: BV2465 (recombinant CoV S glycoprotein, Delta) (SARS-CoV-2, UniProt P0DTC2 14-1273)
- PROCEDURE SUMMARY: BLI, antibody on anti-mouse Fc biosensor, rS analyte

Below, 3 binders whose answers are already recorded.
35.13 (antibody, V domains shown) VH: QVQLQQSGAELGKPGASVKLSCRASGYTFTRYYIYWVKQRPGQGLEWIGEINPSNGDTHFNEKFKTKATLTVDKSSSSAHIHLTSLTSEDSAVYYCSIHAYSFDFWGQGTTLTVSS VL: EIQMTQSPSSMSASLGDRITITCQATQDIVKNLNWYQQKPGKPPSFLIYHATELAKGVPSRFSGSGSGSDYSLTISNLESEDFADYYCLQFYDFPFTFGAGTKLELKR ... 3.73 pM
425.6 (antibody, V domains shown) VH: VQLKQSGPSLVQPSQSLSITCTVSGFSLTSYGIHWVRQSPGKGLEWLGVIWRGGSTDYNAAFMSRLTITKDNSKSQVFFKMNSLQADDTAIYYCATHTEGDDVDYWGQGTSVTVSS VL: QIVLTQSPAIMSVSPGEKVTMTCSASSTMSFMYWYQQKPGSSPRLLIYDTSNLASGVPVRFSGSGSGTSYSLTISRVEAEDAATYYCQQWNTYPLTFGAGTKLELKR ... < 1 pM
322.3 (antibody, V domains shown) VH: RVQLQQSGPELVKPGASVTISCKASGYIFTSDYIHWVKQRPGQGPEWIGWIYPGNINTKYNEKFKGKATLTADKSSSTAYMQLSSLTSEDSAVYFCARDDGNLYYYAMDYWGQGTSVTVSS VL: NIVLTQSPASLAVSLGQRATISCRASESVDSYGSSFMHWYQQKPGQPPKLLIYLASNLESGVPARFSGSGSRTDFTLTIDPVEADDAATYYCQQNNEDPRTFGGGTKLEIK ... 78.7 pM

Shift focus to the following entry.
input: Which Kd value is on record for 239.12 (antibody, V domains shown) VH: EVKLEESGPVLVKPSQSLSLTCTVTGYSITSDYAWNWIRQFPGNKLEWMGYISNSAGTSYNPSLKSRISITRDTSKNQFFLQLNSVTTEDTATYYCASGGWSSYYAMDYWGQGTSVTVSS VL: DIQMTQSPASLSASVGETVTITCGASENIYGALNWYQRKQGKSPQLLIYGATNLADGMSSRFSGSGSGRQYSLKISSLHPDDVATYYCQNVLSTPYTFGGGTKLEIKR ?
output: 3.45 pM
